Source: ChEMBL document CHEMBL3822382

Answer each item with its documented viability at 16 h, 0.25 µM.
assay-comment: Cytotoxicity against human EAhy926 cells assessed as cell viability at 250 nM after 16 hrs by MTT assay relative to control
Format: cell-based, EA.hy 926
condition-info: read-out: Activity

I am curious: what viability at 16 h, 0.25 µM value has been reported for `COc1cc(-c2ncn(C)c2-c2ccc3c(c2)c(Cl)cn3C)cc(OC)c1OC` ? > 90%

Which viability at 16 h, 0.25 µM is reported for this molecule? `COc1cc(-c2ncn(C)c2-c2ccc3c(c2)c(Cl)cn3C)cc(Br)c1OC.Cl` > 90%

---

Kindly state IC50 for each of the entries shown.
assay-comment: Growth inhibition of human MCF7/Topo cells after 24 hrs by MTT assay
Format: functional, cell-based
Record the result as a number with its unit.

Which IC50 value belongs to `COc1cc(-c2ncn(C)c2-c2ccc3c(c2)c(Cl)cn3C)cc(Br)c1OC.Cl` ? 18.8 nM

Give the measured IC50 of `COc1cc(-c2ncn(C)c2-c2ccc3c(c2)c(Cl)cn3C)cc(OC)c1OC` . 20.2 nM

Would you kindly share the measured IC50 for `CCn1cc(Cl)c2cc(-c3c(-c4cc(I)c(OC)c(OC)c4)ncn3C)ccc21` ? 81.2 nM

IC50 for `COc1cc(-c2ncn(C)c2-c2ccc3c(c2)c(Cl)c(Cl)n3C)cc(Br)c1OC` ? 208 nM

What does the data say about its IC50? Entry: `CCn1cc(Cl)c2cc(-c3c(-c4cc(Br)c(OC)c(OC)c4)ncn3C)ccc21` 91.3 nM
